Hello, the source for this data is patent US6359130B1, in case you need it.

Target: protein kinase C (mixed isozymes of a, b, g)
Assay: Inhibition of protein kinase C activity (Millipore Multiscreen TCA in-plate assay)
Details: read-out: PKC IC50
MEASURED_ENDPOINT: pIC50
pIC50 (log units): -log10 of the concentration in mol/L.

Give recorded pIC50. O=C1NCc2c1c1c3c4c2c2ccccc2n4C2CCC(CO)(O2)C3c2ccccc2-1 (stereo not drawn)
6.29

Give recorded pIC50. CC12COCC(O1)n1c3ccccc3c3c4c(c5c(c31)C2c1ccccc1-5)C(=O)NC4 (stereo not drawn) [II-7b]
6.25

Give recorded pIC50. O=C1NCc2c1c1c3c4c2c2ccccc2n4C2CCC(O2)C3c2ccccc2-1 (stereo not drawn)
5.89

Give recorded pIC50. COc1ccc2c(c1)-c1c3c(c4c5ccccc5n5c4c1C2C1CCC5O1)CNC3=O (stereo not drawn)
6.24

Give recorded pIC50. O=C1NCc2c3c4c5c(c21)c1ccccc1n5C1CCC(O1)C4c1ccccc1-3 (stereo not drawn)
5.97

Give recorded pIC50. CC12COCC(O1)n1c3ccccc3c3c4c(c5c(c31)C2c1ccccc1-5)C(=O)NC4 (single isomer, unassigned) [II-7a]
6.16
